The reported measurements were obtained from the supplement of paper PMC7125110.

B1: glmS ribozyme (parent)
chain: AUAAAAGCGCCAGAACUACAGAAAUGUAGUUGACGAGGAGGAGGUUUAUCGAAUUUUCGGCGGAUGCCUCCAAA

- Variants of: B1
- Procedure Text: self-cleavage kobs at 640 uM GlcN6P; higher = faster cleavage; RNA array
- Particulars: with glucosamine-6-phosphate
This sample holds only a part of the variants without activity.
For each record, write down the corresponding self-cleavage kobs at 640 uM GlcN6P.

Ask: Recorded self-cleavage kobs at 640 uM GlcN6P of AUAAAAGCGCCAGAACUACAGAAAUGUAGUCGACGAGGAGGAGGUUUAUCGAAUUUUCGUCGGAUGGCUCCAAA , please.
Reply: < 1e-05 s⁻¹

Ask: Next variant: AUAAAAGCGCCAGAACUACAGAAAUGUAGUUGACGAGGAGUAGGUUGAUCGAAUUUUCGGCGGAUGCCUCCAAA
Reply: 0.000221 s⁻¹

Ask: Next variant: AUAAAAGCGCCACAACUACAGAAAUGUAGUUGAGCAGGAGGAUGUUUCUCGAAUUUUCGGCGGAUGGCUUCAAA
Reply: < 1e-05 s⁻¹

Ask: Next variant: AUAAAAGCGCCAGAACUACAGAAAUGUAGUUGACGAGGAGGAGGUAUAUUGAAUCUUCGGCGGAUGCCUCCAAA
Reply: < 1e-05 s⁻¹

Ask: Next variant: AUAAACGCCCCAGAACUACAGAAAUGUAGUUAACGAGGAGGAGGUUUAUUGAGUUUUCGGCGGAUGCCUCCAAA
Reply: < 1e-05 s⁻¹

Ask: Next variant: AUAAAAGCGCCAGAACUACAGAAAUGUAGUUGACGAGGAGGAGGUUUAGCGAAUUUUCGGUGGAUGCCUCAAAA
Reply: < 1e-05 s⁻¹

Ask: Next variant: AUAAAAGCGCCAGAACUACAGAAAUGUAGAUGACGAGGAGGAGGUUUAUCGAAUGUUCGGUGGAUGCCUCCAAA
Reply: < 1e-05 s⁻¹

Ask: Next variant: AUAAAAUCGCCAGAACUACAGAAAUGUAGUUGACGAGGAGGAGGUUUAUCGAAUUUUCGGUGGAUGCGUCCAAA
Reply: 0.00114 s⁻¹

Ask: Next variant: AUAAAAGCGCCAGAACUACAGAAAUGUAGUUGACGAGGAGGAGGUUUCUCGAAUUUUCGGCUGAUGCCUCCAAA
Reply: < 1e-05 s⁻¹

Ask: Next variant: AUAAAAGCGCCAUAACUACAGAAAUGUAGUUGACGAGGAGGACGUUUAUCGAAUUUUCGGCGGGUGCCUCCAAA
Reply: < 1e-05 s⁻¹

Ask: Next variant: AUAAAAGUGCCAGAACUACAGAAAUGUAGUUGACGAGGCGGAGGUUUAUGGAAUUUUCGGGGGAUGCCUCCAAA
Reply: < 1e-05 s⁻¹

Ask: Next variant: AUAAAAGCGCCAGAACUACAGAAAUGUAAUUGACGAGGAGGAGGUUUAUCGAAUUUUCGGCGGAUGACUCCAAA
Reply: 0.000205 s⁻¹

Ask: Next variant: AUAAAAGCGCCAGAACUACAGAAAUGUAGUUGACGAGGAGGAGGUUGAUCGAACUUUCGGCGGAUGCCUCCAAA
Reply: 0.0026 s⁻¹

Ask: Next variant: AUAAAAGCGCCAGAACUACAGAAAUGUAGUUGAAGAGGAGGAGGAUUAUCGAAUUUUCGGCGGAUGCCUCCAAA
Reply: < 1e-05 s⁻¹

Ask: Next variant: AUAAACGCGCCAGAACUACAGAAAUGUAGUUGACGAUGAGGAGGUUUAUUGAAUUUUCGCCGGAUGCCUCCAAA
Reply: < 1e-05 s⁻¹

Ask: Next variant: AUAAAAGCGCCAGAACUACAGAAAUGUAGUUGACGAGGAGGAGGUUUAUCGAGUAUUCGGCGGAUUCCUCCAAA
Reply: 0.000436 s⁻¹

Ask: Next variant: AUAAAAGCGCCAGAACUACAGAAAUGUAGUUGACGAGGAGGAGGUUUAUCGAAUUUUCGGCUGAUGGCUCCAAA
Reply: < 1e-05 s⁻¹

Ask: Next variant: AUAAAAGCGCCACACCUACAGAAAUGUAGUUGACGAGGAGGAGGUUUAUCGUAUUUUCGGCGGAUCCCUCCAAA
Reply: < 1e-05 s⁻¹

Ask: Next variant: AUAAAAGCGCCAGUACUACAGAAAUGUAGUUGACGAGGAGAAGGAUUAUCGAAUUUUCGGCGGAUGCCUCCAAA
Reply: 6.25e-05 s⁻¹

Ask: Next variant: AUAAAAGCGCCAGAACUACAGAAAUGUAGUUGACGAGGAGGUGGUUUAUCGAAUUUUCGGUGGAUGCCUCCAAA
Reply: < 1e-05 s⁻¹

Ask: Next variant: AUAAAAGCGCCAGAACUACAGAAAUGUAGUUGACGAGGAGGAGGUUUAUCGAAUUUUUGGGGGAUGCCUCCAAA
Reply: 5.03e-05 s⁻¹

Ask: Next variant: AUAAAAGCGCCAGAACUACAGAAAUGUAGUUGACGGGGAGGAGGUUUAUCGAAUUUACGGCGGAUGCCUCCAAA
Reply: < 1e-05 s⁻¹
